B1: HDV Ribozyme (parent)
chain: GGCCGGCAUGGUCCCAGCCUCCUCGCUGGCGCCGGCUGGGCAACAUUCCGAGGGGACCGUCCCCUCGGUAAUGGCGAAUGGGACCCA

Variants of: B1
assayRemarks: self-cleavage, relative activity (ratio to wild type); higher = more cleavage; co-transcriptional
The entries below are paired with their reported self-cleavage.

Worked set:
GGCCGGCAUGGUCCCAGCCUCCUCGCUGGCGCCGGCUUGGCAACAUUCCGAGGAGACCGUCCCCUCGGUAAUGGCGAAUGGGACCCA [G38U G54A]    0.227
GGCCGGCAUGAUCCCAGCCGCCUCGCUGGCGCCGGCUGGGCAACAUUCCGAGGGGACCGUCCCCUCGGUAAUGGCGAAUGGGACCCA [G11A U20G]    0.0326
GGCCGGCAUGGUCCAAGCCUCCUCGCUGGCGCCGGCUGGGCAACAUUCCGAGGGGACCGUCCCCUCGGUAAUGGCGAAUGGGGCCCA [C15A A83G]    0.284
GGCCGGCAUGGUCCCAGCCUCCUCGCUAGCGCCGGCUGGGCAACAUUCCGAGGGAACCGUCCCCUCGGUAAUGGCGAAUGGGACCCA [G28A G55A]    0.153
GGCCGGCAUGGUCCCAGCCUCCUCGCUGGCGCCGGCUGGGCAACAUUCCGAGGGGACCGUCCCCUCGGUAAUAGCGAAUCGGACCCA [G73A G80C]    0.165
GGCCGGCAUGGUCCCACCCUCCUCGCUGGCGCCGGCUGGGCAACAUUCCGAGGGGACCGUCCCCUCGGUAAUGGCGAUUGGGACCCA [G17C A78U]    0.18

# variant GGCCGGCAUGGUCUCAGCCUCCUCGCUGGCGCCGGCUGGGCAACAUUCCGAGGGGACCGUCCCCCCGGUAAUGGCGAAUGGGACCCA [C14U U65C] ; its self-cleavage = 0.997

# variant GGCCGGCAUGAUCCCAGCCUCCUCGCUGGCGCCGGCUGGGCAACAUUCCGAGGGCACCGUCCCCUCGGUAAUGGCGAAUGGGACCCA [G11A G55C] ; its self-cleavage = 0.396

# variant GGCCGGCAUGGUCCCAGCCUCCUCGCUGGCGCCGGCUGGGCAACAUUCCGAGGGGACCGUCCCCUCGGAUAUGGCGAAUGGGACCCA [U69A A70U] ; its self-cleavage = 0.95

# variant GGCCGGCAUGGUCCCAUCCUCCUCGCUGGCGCCGGCUGGGCAACAUUCCGAGGGGACCGUCCCCUCGGUCAUGGCGAAUGGGACCCA [G17U A70C] ; its self-cleavage = 0.246
